Please consider the recorded pKi for UniProtKB P31652 in what follows.
Sequence (P31652 whole entry): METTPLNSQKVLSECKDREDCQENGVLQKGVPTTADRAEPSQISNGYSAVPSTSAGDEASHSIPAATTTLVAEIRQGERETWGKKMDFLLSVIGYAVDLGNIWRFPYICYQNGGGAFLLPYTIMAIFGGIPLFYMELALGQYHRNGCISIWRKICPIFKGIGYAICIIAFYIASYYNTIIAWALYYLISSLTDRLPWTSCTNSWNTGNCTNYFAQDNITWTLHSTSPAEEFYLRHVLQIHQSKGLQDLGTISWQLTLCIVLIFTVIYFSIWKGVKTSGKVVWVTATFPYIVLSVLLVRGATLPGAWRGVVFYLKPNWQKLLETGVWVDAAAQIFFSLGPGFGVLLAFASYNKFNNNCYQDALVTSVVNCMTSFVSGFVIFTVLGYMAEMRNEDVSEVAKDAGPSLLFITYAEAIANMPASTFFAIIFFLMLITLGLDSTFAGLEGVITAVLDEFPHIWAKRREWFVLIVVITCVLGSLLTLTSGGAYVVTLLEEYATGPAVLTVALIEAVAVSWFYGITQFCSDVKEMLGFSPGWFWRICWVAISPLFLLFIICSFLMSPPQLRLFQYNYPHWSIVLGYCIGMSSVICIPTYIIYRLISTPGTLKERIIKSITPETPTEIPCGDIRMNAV
Note: pKi values are expressed as the negative base-10 logarithm of concentration in M.

Consider the following illustrative entries.
>  <MOLECULE>
Cc1ccc2c3c(ccc2n1)OC[C@H](CN1CC(CCn2ccc4ccc(C#N)cc42)C1)O3

>  <READOUT>
pKi

>  <READOUT_NUMBER>
8.54

$$$$
>  <MOLECULE>
Cc1ccc2c3c(ccc2n1)OCC(CN1CC(Cn2ccc4ccc(F)cc42)C1)O3 (stereo not shown)

>  <READOUT>
pKi

>  <READOUT_NUMBER>
9.96

$$$$
>  <MOLECULE>
Cc1ccc2c3c(ccc2n1)OCC(CN1CCCC(Cc2c[nH]c4ccc(F)cc24)C1)O3 (stereo not shown)

>  <READOUT>
pKi

>  <READOUT_NUMBER>
7.82

$$$$

Task item: For UniProtKB P31652, provide pKi of Cc1ccc2c3c(ccc2n1)OCC(CN1CC(Cc2c[nH]c4ccccc24)C1)O3 (stereo not shown) please.
Reply: 9.25

The values you see were collected from patent US7135479B2.
